Test system: mouse fibroblast cells (ATCC CCL-1, L929)
measurement.notes: Cytotoxicity, WST-8 colorimetric assay
Type: cell-based
condition.set: pH 4 (Acetate), 60 min exposure
Please use 1 (yes) for CT50 (concentration that results in survival of 50% of the cells) under 1 mM and 0 (no) for everything else, ties included.

Just wondering, is CT50 (concentration that results in survival of 50% of the cells) of CC[N+](C)(C)CCC(C)(C)N(Cl)Cl.[Cl-] below 1 mM? 0 (no)

Here's an entry: CC(C)(CC[N+]12CCC(CC1)CC2)N(Cl)Cl [Compound 21-120, methanesulfonate] . Is its CT50 (concentration that results in survival of 50% of the cells) below 1 mM? 0 (no)

Take the molecule CC(C)(CC[N+](C)(C)C1CCCCC1)N(Cl)Cl.[Cl-] and say whether its CT50 (concentration that results in survival of 50% of the cells) is less than 1 mM. 1 (yes)

# strict comparison: is reported CT50 (concentration that results in survival of 50% of the cells) < 1 mM? input = CCCCCCCCCCCC[N+](C)(C)CCC(C)(C)N(Cl)Cl 1 (yes)

Does the reported CT50 (concentration that results in survival of 50% of the cells) of the following molecule sit strictly below 1 mM? CC(C)(CC[N+](C)(C)CCC[N+](C)(C)C)N(Cl)Cl.[Cl-].[Cl-] 0 (no)
